Method Description: Leishmania major promastigote growth inhibition, primary screen (AID 1063);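 further: promastigotes grown with compound for 44 hours at 28 °C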
Applied Conditions: Leishmania major promastigotes, resazurin fluorescence viability; at 10 µM
Among all 200,000 compounds or so, about 18,000 (9%) were called active. No stated cut-off is given here; in the data, active means inhibition above about 50%; inactive means the rest. The list comes from a sample in which actives are over-represented; it also holds close analogues and randomly drawn compounds.
# output must be one of 1 (active), -1 (inactive)

CN(C)CCCNC(=S)NCc1ccc(Cl)cc1 = -1
COc1ccc(/C=C/C(=O)c2ccc(OC)cc2O)cc1 = -1

Turning to the following compound.
Task: State the result this test recorded for CN1CCN(c2ccc(NC(=O)c3ccc4c(c3)OCCO4)cc2Cl)CC1 .
Result: -1

---

Method Description: Leishmania major promastigote growth inhibition, primary screen (AID 1063);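 further: promastigotes grown with compound for 44 hours at 28 °C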
Applied Conditions: Leishmania major promastigotes, resazurin fluorescence viability; at 10 µM; stronger effect = higher value
Among all 200,000 compounds or so, about 18,000 (9%) were called active. Shown is part of a subset that was picked to be rich in actives.
Entries and their inhibition values follow.
Express it in %; write the number only.

CC(=O)C1=C(C)NC2=C(C(=O)CC(C)(C)C2)C1C (stereo unspecified) = -3.1
Cn1c(=O)n(C)c(=O)n(CC(=O)N2CCCCC2)c1=O = -4.15
CCOc1ccc(Br)cc1S(=O)(=O)N1CCC(C(=O)O)CC1 = -5.93
COc1ccc(/C=C(\C#N)C(=O)ONC2=NCCCCC2)cc1 = -4.23
CN(C)CCCN1C(=O)CSC1c1ccc([N+](=O)[O-])cc1 (stereo unspecified) = 46.8

Lab note: next compound to report on.
Task: Form field: reported inhibition of COc1ccc(OC)c(-c2csc(NC(=O)C3=NNC(=O)CC3)n2)c1
Result: -4.28

---

Method Description: Leishmania major promastigote growth inhibition, primary screen (AID 1063);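 further: promastigotes grown with compound for 44 hours at 28 °C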
Applied Conditions: Leishmania major promastigotes, resazurin fluorescence viability; at 10 µM; stronger effect = higher value
In all, about 200,000 compounds went through this assay and about 18,000 (9%) were called active. The entries come from a sample that favours actives as a whole.
Assay Endpoint: inhibition (%)
Express it in %; write the number only.

O=C(COc1ccc2ccccc2c1)N1CCN(C(=O)c2cccs2)CC1 = -4.2
CCOC(=O)CCCN1CC(O)=C(c2nc3ccccc3s2)C1=N = 17
COc1ccc(NC(=O)CCN2CCCC2)c(OC)c1 = -0.8
Cc1cc(OCCN2CCCC2)cc(C(C)C)c1 = 92.5

Task: Form field: reported inhibition of O=C(Nc1ccc(-c2ccc3nncn3n2)cc1)C1CCCCC1
Result: -4.63

Task: Form field: reported inhibition of O=C(COc1ccc(Cl)cc1)NCc1nnc(SCC(=O)NCC2CCCO2)o1 (configuration not stated)
Result: -8.43

Task: Form field: reported inhibition of Clc1ccccc1-c1cc(COc2ccc3ccccc3c2)no1
Result: -8.15

Task: Form field: reported inhibition of COc1cccc(OCCCN2CCCCCC2)c1
Result: 91.6

Task: Form field: reported inhibition of Cc1ccc(C(C)C)cc1OCCN1CCCC1
Result: 92.5

Task: Form field: reported inhibition of COC(=O)CSc1ccc2nnc(CCNS(=O)(=O)c3ccc(C)cc3)n2n1
Result: 2.97

Task: Form field: reported inhibition of COc1cccc(OCC(O)CN2CCN(CCO)CC2)c1 (configuration not stated)
Result: -0.73

Task: Form field: reported inhibition of Cc1ncoc1C(=O)NCCC(c1ccccc1)c1ccccc1
Result: 1.37

---

Method Description: Leishmania major promastigote growth inhibition, primary screen (AID 1063);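 further: promastigotes grown with compound for 44 hours at 28 °C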
Applied Conditions: Leishmania major promastigotes, resazurin fluorescence viability; at 10 µM; stronger effect = higher value
About 18,000 (9%) of roughly 200,000 compounds were called active. This excerpt belongs to a sample that is enriched for actives.
Assay Endpoint: inhibition (%)
Express it in %; write the number only.

Cn1c(NN)nc2sc3c(c2c1=O)CCC3 = -2.23
Cc1ccc(N(Cc2cc3ccccc3[nH]c2=O)C(=O)c2cccs2)cc1 = 75.4
CN(CCc1cnn(C)c1)Cc1cn(C)nc1-c1ccccc1F = -3.32
CCc1nccn1S(=O)(=O)c1cccc([N+](=O)[O-])c1 = 33.6
CCN1CCN(Cc2c(O)ccc3c(=O)c(-c4ccc(OC)c(OC)c4)c(C(F)(F)F)oc23)CC1 = 99.8
CCc1nc(C)cn1S(=O)(=O)c1cc(OC)c(C)cc1C = 67.1

Task: Form field: reported inhibition of CC1CCCC(C)N1/N=C/c1ccccc1OC(F)F (stereo unspecified)
Result: -3.94

Task: Form field: reported inhibition of CCc1ccccc1NC(=O)CN(c1ccc(OC)cc1OC)S(=O)(=O)c1ccccc1[N+](=O)[O-]
Result: 27.7

Task: Form field: reported inhibition of CCCOc1cc(C)c(S(=O)(=O)n2nnc3ccccc32)cc1C
Result: -5.25

Task: Form field: reported inhibition of O=C(c1snnc1-c1ccccc1)N1CCOCC1
Result: -3.05

Task: Form field: reported inhibition of CC(OC(=O)c1ccccc1OCc1ccc(Cl)cc1)C(N)=O (stereo unspecified)
Result: 10.8

---

Method Description: Leishmania major promastigote growth inhibition, primary screen (AID 1063);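 further: promastigotes grown with compound for 44 hours at 28 °C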
Applied Conditions: Leishmania major promastigotes, resazurin fluorescence viability; at 10 µM
In all, about 200,000 compounds went through this assay and about 18,000 (9%) were called active. Cut-off read from the data, not from the text of the source: active = inhibition above about 50%; inactive = the rest. The full list was thinned out, with actives kept by preference.
# output must be one of 1 (yes) for active, 0 (no) for inactive

Task: State the result this test recorded for Cc1ccnc(NC(=O)CCCOc2ccccc2)c1 .
Result: 0 (no)

Task: State the result this test recorded for O=C1/C(=C\c2ccccc2Cl)SC(=S)N1CCC(=O)N1CCCc2ccccc21 .
Result: 1 (yes)

---

Entries and their inhibition values follow.
Method Description: Leishmania major promastigote growth inhibition, primary screen (AID 1063);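 further: promastigotes grown with compound for 44 hours at 28 °C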
Applied Conditions: Leishmania major promastigotes, resazurin fluorescence viability; at 10 µM; stronger effect = higher value
About 18,000 (9%) of roughly 200,000 compounds were called active. The entries come from a sample that favours actives as a whole.

CC(C)C(=O)Nc1cccc(NC(=O)c2ccc([N+](=O)[O-])cc2Cl)c1 = 6.59% (inactive)
COc1ccc(-c2ccc(CCC(=O)O)n2-c2ccc(O)cc2)cc1 = -1.18% (inactive)
COc1ccc(-c2csc(Nc3ccccn3)n2)cc1 = 15.6% (inactive)
CNC(=S)NNC(=O)c1cccn(Cc2ccccc2)c1=O = -2.81% (inactive)
COc1ccc2c(c1OC)C(=O)OC2c1c(O)nc(SC)n(-c2ccccc2)c1=O (stereo unspecified) = -6.91% (inactive)

Task: Form field: reported inhibition of Cc1ccc(NC(=O)c2cc([N+](=O)[O-])ccc2Cl)c(O)c1
Result: 15.1% (inactive)

---

Method Description: Leishmania major promastigote growth inhibition, primary screen (AID 1063);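 further: promastigotes grown with compound for 44 hours at 28 °C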
Applied Conditions: Leishmania major promastigotes, resazurin fluorescence viability; at 10 µM; stronger effect = higher value
Among all 200,000 compounds or so, about 18,000 (9%) were called active. The sample holds actives, similar compounds and a random draw of the others, so the mix is not that of the screen.
Assay Endpoint: inhibition (%)
Express it in %; write the number only.

Field: example entries. Status: answers known.
CN(C)CCN=c1cc(-c2ccccc2)oc2ccc(Cl)cc12 = 63
CC(=O)Nc1ccc(Sc2ccccc2C(=O)N2CCCC2)cn1 = -4.22

Task: Form field: reported inhibition of CC(C)(C)n1ncc2c(=O)n(Cc3ccc(Cl)cc3)cnc21
Result: 0.21

Task: Form field: reported inhibition of CN(C)c1ccc(/C=C/C(=O)c2ccc(C(C)(C)C)cc2)cc1[N+](=O)[O-]
Result: 27.1

---

Method Description: Leishmania major promastigote growth inhibition, primary screen (AID 1063);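 further: promastigotes grown with compound for 44 hours at 28 °C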
Applied Conditions: Leishmania major promastigotes, resazurin fluorescence viability; at 10 µM
Out of some 200,000 compounds screened, about 18,000 (9%) were called active. Cut-off read from the data, not from the text of the source: active = inhibition above about 50%; inactive = the rest. The sample as a whole holds a higher share of actives than the screen did.
# output must be one of true for active, false for inactive

Cc1nnc(-c2ccc(Oc3ccc(C)c(C)c3)c([N+](=O)[O-])c2)o1 = true
O=C(NCC1CCN(Cc2ccccc2Cl)CC1)Nc1cccc(Cl)c1 = true
COc1ccc(-c2nc3cc([N+](=O)[O-])ccc3o2)cc1OC = false
O=S1(=O)CCN(Cc2ccccc2Cl)CC1 = false
O=C(NCCN1CCOCC1)Nc1cccc(Cl)c1 = false

Turning to the following compound.
Task: State the result this test recorded for COc1ccc(OCC(=O)Nc2cc(C)c(Cl)cc2OC)c([N+](=O)[O-])c1 .
Result: false

---

Method Description: Leishmania major promastigote growth inhibition, primary screen (AID 1063);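 further: promastigotes grown with compound for 44 hours at 28 °C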
Applied Conditions: Leishmania major promastigotes, resazurin fluorescence viability; at 10 µM
Hit rate of the full screen: of about 200,000 compounds, about 18,000 (9%) were called active. Cut-off read from the data, not from the text of the source: active = inhibition above about 50%; inactive = the rest. The list comes from a sample in which actives are over-represented; it also holds close analogues and randomly drawn compounds.
# output must be one of active, inactive

Solved entries:
COC(=O)C1NN=C(C(=O)c2ccc(Br)cc2)C1c1cccc(Br)c1 (centres undefined) = inactive
C/C(=N\NC(=O)CSc1nc2ccccc2c(=O)n1-c1ccccc1C)c1cccs1 = active
O=C(O)c1n[nH]nc1-c1ccccc1 = inactive
Cc1cc(NC(=O)CN2C(=O)NC(C)(CCc3ccccc3)C2=O)no1 (centres undefined) = inactive
COc1ccccc1-c1nnc(SCC(=O)Nc2ccccc2)o1 = inactive
NC(=O)C[n+]1cccc(C(N)=O)c1 = inactive
Cc1ccc(OCc2n[nH]c(=S)n2-c2ccccc2)cc1 = inactive
COc1ccccc1-c1nnc(NC(=O)c2ccc3ncsc3c2)o1 = active

Task: State the result this test recorded for CN(C)C(=O)CSc1n[nH]c(-c2ccco2)n1 .
Result: inactive
